Assay: signal artefacts in PPARgamma/SRC-3 readout – biochemical, TR-FRET ratio, artefact control for PPARgamma SRC-3 recruitment agonists (AID 1048)
Details: TR-FRET artefact counter-screen, PPARgamma/SRC-3 format; at 8 µM; hits give high values
The whole screen tested about 99,000 compounds, of which about 390 (0.39%) were called active. The sample as a whole holds a higher share of actives than the screen did.
Parameter: TR-FRET ratio. Scope: all listed entries.
Would you mind answering with just the numeric figure?

Use the examples below as a reference point.
>  <compound>
CCn1nc(C)cc1C(=O)N1CCCC(C(=O)c2cccc(OC)c2)C1 (centres undefined)

>  <TR-FRET ratio>
1380

$$$$
>  <compound>
CCOP(=O)(OCC)C(Nc1ccc([N+](=O)[O-])cc1)c1ccc(Cl)cc1 (centres undefined)

>  <TR-FRET ratio>
1560

$$$$

The value of TR-FRET ratio measured for the compound O=C(CSc1ccc(-c2cccs2)nn1)Nc1ccccc1F turned out to be 1640

The value of TR-FRET ratio measured for the compound O=C(NCCOc1ccccc1F)Nc1ccc(Br)cc1 turned out to be 1530

The value of TR-FRET ratio measured for the compound Cc1ccc(S(=O)(=O)NCCC(=O)Nc2ccc(C)c(Cl)c2)cc1C turned out to be 1640

The value of TR-FRET ratio measured for the compound COc1ccc(C)cc1NC(=O)Nc1ccccc1SC turned out to be 1480

The value of TR-FRET ratio measured for the compound COCc1c(C(=O)OCc2c(C)noc2C)oc2ccccc12 turned out to be 1630

The value of TR-FRET ratio measured for the compound S=c1[nH]nc(COc2ccccc2)n1-c1ccccc1 turned out to be 1490

The value of TR-FRET ratio measured for the compound CCN(CC)CCNc1nc(-c2ccc(OC(F)F)cc2)c(C)s1 turned out to be 1480

Recorded values, source PubChem BioAssay AID1048.
